Target: human full-length MKNK1 (Homo sapiens, UniProt Q9BUB5, T385D)
Sequence (Q9BUB5 1-424 isoform Q9BUB5-2 T344D): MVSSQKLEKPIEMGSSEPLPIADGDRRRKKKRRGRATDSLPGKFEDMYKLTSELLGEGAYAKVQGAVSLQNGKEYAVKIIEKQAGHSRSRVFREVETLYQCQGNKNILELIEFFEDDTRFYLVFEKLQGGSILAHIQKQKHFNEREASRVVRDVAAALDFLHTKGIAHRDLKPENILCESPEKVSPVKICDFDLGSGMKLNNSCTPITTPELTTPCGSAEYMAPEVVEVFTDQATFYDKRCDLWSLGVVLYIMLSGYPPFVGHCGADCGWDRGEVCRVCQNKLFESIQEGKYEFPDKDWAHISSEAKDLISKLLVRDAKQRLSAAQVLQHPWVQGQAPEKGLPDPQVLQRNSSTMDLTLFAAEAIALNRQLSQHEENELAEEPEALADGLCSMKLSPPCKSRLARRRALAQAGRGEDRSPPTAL
Assay: MKNK1 kinase high ATP assay (TR-FRET)
Details: high ATP (2 mM final), 15 min preincubation with enzyme, GST-MKNK1 (T344D)
pIC50: −log10 of the molar value.
Output T for pIC50 not less than 8; output F otherwise.

[
  {
    "smiles-representation": "CCc1[nH]c2ncnc(Nc3cnc4[nH]ncc4c3)c2c1C",
    "experimental-system": "human full-length MKNK1 (Homo sapiens, UniProt Q9BUB5, T385D)",
    "category-label": "F"
  },
  {
    "smiles-representation": "COc1nc2[nH]ncc2cc1Nc1ncnc2sc3c(c12)CC[C@H](C(=O)N1CCC(N(C)C)CC1)C3",
    "experimental-system": "human full-length MKNK1 (Homo sapiens, UniProt Q9BUB5, T385D)",
    "category-label": "T"
  },
  {
    "smiles-representation": "COc1nc2[nH]ncc2cc1Nc1ncnc2sc3c(c12)CC[C@H](C(=O)N1CC[C@@H](N(C)C)C1)C3",
    "experimental-system": "human full-length MKNK1 (Homo sapiens, UniProt Q9BUB5, T385D)",
    "category-label": "T"
  },
  {
    "smiles-representation": "COc1nc2[nH]ncc2cc1Nc1ncnc2sc3c(c12)CC[C@H](C(=O)N1CCOCC1)C3",
    "experimental-system": "human full-length MKNK1 (Homo sapiens, UniProt Q9BUB5, T385D)",
    "category-label": "T"
  },
  {
    "smiles-representation": "O=C(c1cc2c(Nc3cc4cn[nH]c4cn3)ncnc2[nH]1)N1CCCC1",
    "experimental-system": "human full-length MKNK1 (Homo sapiens, UniProt Q9BUB5, T385D)",
    "category-label": "T"
  }
]

* * *

Target: human full-length MKNK1 (Homo sapiens, UniProt Q9BUB5, T385D)
Experiment: MKNK1 kinase high ATP assay (TR-FRET)
Conditions: high ATP (2 mM final), 15 min preincubation with enzyme, GST-MKNK1 (T344D)

[
  {
    "smiles-representation": "FC(F)(F)c1c[nH]c2ncnc(Nc3cnc4[nH]ncc4c3)c12",
    "IC50, nM": 28.8
  },
  {
    "smiles-representation": "C[C@@H]1COCCN1C(=O)[C@H]1CCc2c(sc3ncnc(Nc4cc5cn[nH]c5cn4)c23)C1",
    "IC50, nM": 8
  },
  {
    "smiles-representation": "C[C@@H]1CN(C(=O)[C@H]2CCc3c(sc4ncnc(Nc5cnc6[nH]ncc6c5)c34)C2)C[C@H](C)O1",
    "IC50, nM": 18.1
  },
  {
    "smiles-representation": "CN(C)[C@H]1CCN(C(=O)[C@H]2CCc3c(sc4ncnc(Nc5cnc6[nH]ncc6c5)c34)C2)C1",
    "IC50, nM": 3.7
  },
  {
    "smiles-representation": "CCc1c[nH]c2ncnc(Nc3cnc4[nH]ncc4c3)c12",
    "IC50, nM": 12.2
  },
  {
    "smiles-representation": "CN(CCC(F)(F)F)C(=O)[C@H]1CCc2c(sc3ncnc(Nc4cnc5[nH]ncc5c4)c23)C1",
    "IC50, nM": 8.2
  },
  {
    "smiles-representation": "COc1nc2[nH]ncc2cc1Nc1ncnc2sc3c(c12)CC[C@H](C(=O)N1C[C@@H]2C[C@H]1CO2)C3",
    "IC50, nM": 2.5
  },
  {
    "smiles-representation": "COc1nc2[nH]ncc2cc1Nc1ncnc2[nH]c(C(=O)N3CCOC[C@@H]3C)c(Br)c12",
    "IC50, nM": 7.3
  },
  {
    "smiles-representation": "CN(C)C1CCN(C(=O)c2[nH]c3ncnc(Nc4cc5cn[nH]c5nc4O)c3c2Br)CC1",
    "IC50, nM": 2.8
  },
  {
    "smiles-representation": "O=C([C@H]1CCc2c(sc3ncnc(Nc4cc5cn[nH]c5cn4)c23)C1)N1CC2(COC2)C1",
    "IC50, nM": 6.9
  },
  {
    "smiles-representation": "C[C@@H]1CN(C(=O)[C@H]2CCc3c(sc4ncnc(Nc5cc6cn[nH]c6cn5)c34)C2)C[C@H](C)O1",
    "IC50, nM": 5.9
  },
  {
    "smiles-representation": "CN(C)CCN(C)C(=O)c1cc2c(Nc3cc4cn[nH]c4cn3)ncnc2[nH]1",
    "IC50, nM": 23.1
  },
  {
    "smiles-representation": "CN(C)C(=O)[C@H]1CCc2c(sc3ncnc(Nc4cnc5[nH]ncc5c4)c23)C1",
    "IC50, nM": 2.3
  },
  {
    "smiles-representation": "C[C@H]1COCCN1C(=O)[C@H]1CCc2c(sc3ncnc(Nc4cnc5[nH]ncc5c4)c23)C1",
    "IC50, nM": 28.7
  },
  {
    "smiles-representation": "CN(C)C1CCN(C(=O)[C@H]2CCc3c(sc4ncnc(Nc5cc6cn[nH]c6cn5)c34)C2)CC1",
    "IC50, nM": 3.1
  },
  {
    "smiles-representation": "CCN(C)C(=O)[C@H]1CCc2c(sc3ncnc(Nc4cc5cn[nH]c5nc4OC)c23)C1",
    "IC50, nM": 1
  }
]

Attribution: patent US20160159789A1
